FYI, the data here is from ChEMBL document CHEMBL3507680.

assay: Human HepG2 cell viability assay in 384 well format; assay type: toxicity, cell-based; set-up: dose 125 nL, time 70.5 hour; concentration not given beside the values; details: HepG2 cells, read-out: Inhibition
measurement kind: cytotoxicity at 70.5 h (%)
Kindly provide the numeric value in % only, without the unit symbol.

molecule	result units	result value
Cc1nc(Oc2ccccc2F)sc1C(=O)O	%	-11.4
CC(C)CCN(C)C(=O)c1nc(S(C)(=O)=O)n2ccccc12	%	4.51
CN(Cc1ccccc1F)Cc1cc2c(cc1Br)OCCO2	%	-9.57

So what's the measured cytotoxicity at 70.5 h for this one? Cc1nn(C(C)C)c(C)c1NC(=O)c1ccncc1
-5.05

Which cytotoxicity at 70.5 h value belongs to CC(C)S(=O)(=O)NCc1cccnc1Oc1ccc(F)cc1F ?
1.03

Which cytotoxicity at 70.5 h is listed for Cc1ccccc1CC1(CO)CCCN(c2ncnc3sccc23)C1 (stereo not drawn) ?
31.4

Tell me the measured cytotoxicity at 70.5 h of Cc1ccc(CN2CC(C(=O)NC(C)C)C3(CCOCC3)C2)s1 (stereo not drawn) , please.
-11.4

Any idea what its cytotoxicity at 70.5 h is? The molecule is CSCCN(C)Cc1ccc(F)cc1C#N
-4.74

----------
test: Human HepG2 cell viability assay in 384 well format; format: toxicity, cell-based; parameters: dose 125 nL, time 70.5 hour; concentration not given beside the values; settings: HepG2 cells, read-out: Inhibition
molecules and their reported cytotoxicity at 70.5 h
Your answer is read as %, so omit the unit and give the number.

molecule	cytotoxicity at 70.5 h (%)
CC(C)(C(=O)NCC1CCN(Cc2ccccn2)C1)c1ccccc1 (stereo not drawn)	18.1
CNC(=O)N1C[C@H]2CC[C@@]3(N=C(c4ccccc4)NC3=O)[C@H]2C1	-6.95
COc1cccc(-c2cc(NCCN(C)C)nc3[nH]ccc23)n1	-6.53
CCOc1cccc2c1OCC(C(=O)NS(=O)(=O)c1cncc(Br)c1)=C2	2.74
F[C@@H]1CN(CC2CC2)C[C@@H]1OCc1nc2cnccc2[nH]1	-0.16
C1CN(c2nc(C3CC3)no2)CCN(C2CCOCC2)C1	-0.117
Cc1noc([C@@H]2C[C@H](NC(=O)NC(C)C)CN2C)n1	-0.832
O=C(NCc1cncc2c1CCN(CC1CCOC1)C2)c1ccco1 (stereo not drawn)	19.6
Cc1ccc(C(=O)NC2CCN(Cc3noc(C(C)(C)C)n3)CC2)s1	-14.3
Cc1ccc(N2C[C@H](O)[C@@H](N3CCN(c4ccccn4)CC3)C2)nn1	-11.3

Would you mind telling me what cytotoxicity at 70.5 h value was observed for CCOCC1CN(C(=O)c2cscn2)Cc2cnn(CC3CC3)c21 (stereo not drawn) ?
8.12

// query cytotoxicity at 70.5 h value for entry Cn1ccnc1CN1CCN(CC(O)c2cccc(F)c2)CC1 (stereo not drawn)
-12.2

Data request, read-out cytotoxicity at 70.5 h, for CCN(CC)C(=O)N1CCOCC1c1c(C)nn(C)c1C (stereo not drawn)
-10.5

# cytotoxicity at 70.5 h lookup, item O=C(C1CCOCC1)N1CCc2ncc(CN3CCCC3)n2CC1
-13.2

Can you look up the measured cytotoxicity at 70.5 h of OCc1ccc(CN(CCCn2ccnc2)Cc2ccncc2)o1 for me?
-4.15

Bench note: what cytotoxicity at 70.5 h did COCCC(=O)N1CC[C@H]2C(=O)N(c3ccsc3)CCO[C@H]2C1 show?
-1.99

Param item = CC(C)(C)c1n[nH]c(C2CN(C(=O)CCC3CC3)CCO2)n1 (stereo not drawn) ; retrieve measured cytotoxicity at 70.5 h.
-9.78

Which value of cytotoxicity at 70.5 h has been reported for CC1CCN(C(=O)[C@@H]2C[C@@H]3CCN(Cc4nccs4)C[C@H]3O2)CC1 in the records?
-6.62

Reported cytotoxicity at 70.5 h, molecule O=C(c1ccco1)N1C[C@@H]2OCCN(c3ncccn3)[C@@H]2C1 : ____
-13.6

Give the measured cytotoxicity at 70.5 h of Cn1cc(CNC[C@H]2Cn3ccnc3CO2)c2ccccc21 .
-5.61

Given the entry CC(Cn1cccn1)NC(=O)Cc1csc(C(C)C)n1 (stereo not drawn) , report its measured cytotoxicity at 70.5 h.
-10.5

Fill in: cytotoxicity at 70.5 h of N[C@@H]1CCC[C@@H](Oc2ccc(F)cc2Oc2ccccc2)[C@@H]1O is ___
20.8

Record request: cytotoxicity at 70.5 h value, item COC(=O)CN(C)C1CCc2ccccc21 (stereo not drawn)
-4.82

Can you look up the measured cytotoxicity at 70.5 h of Cc1cc(S(=O)(=O)N2CCC(S(C)(=O)=O)C2)ccc1F (stereo not drawn) for me?
-5.71

Requested read-out: cytotoxicity at 70.5 h. Entry: CN(Cc1ccncc1)C(=O)CCNS(=O)(=O)c1cccnc1
2.92

Report cytotoxicity at 70.5 h for CCS(=O)(=O)NCCCNc1cc(N2CCCC2CO)ncn1 (stereo not drawn) please.
-4.09

Consider the molecule CCCNC(=O)COc1cccc(-c2nc(C(C)C)no2)c1 and give its measured cytotoxicity at 70.5 h.
0.882

Give its cytotoxicity at 70.5 h value. Item: O=C(c1cccc(C(F)(F)F)c1)N1CC(=O)N(C2CCC2)CC(O)C1 (stereo not drawn)
-7.16
